Entries annotated with measured kon
Biological target: T1, hRSV FTM- protein (membrane anchorless form of the fusion protein, 70 kDa) (human respiratory syncytial virus, UniProt P12568 26-524)
T1 construct: extracellular domain
Assay: SPR (Biacore T100), FTM- amine-coupled on CM5 chip, 1:1 Langmuir fit
Report the figure in M⁻¹ s⁻¹ without appending any unit label.

Note to self: kon recorded for LG191D3 (VHH) VHH: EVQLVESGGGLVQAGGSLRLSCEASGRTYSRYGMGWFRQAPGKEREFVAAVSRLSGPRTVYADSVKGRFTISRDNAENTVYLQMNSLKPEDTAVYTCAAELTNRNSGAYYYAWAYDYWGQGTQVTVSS was 1.59e+06

Note to self: kon recorded for LG191B9 (VHH) VHH: EVQLVESGGGLVQAGGSLRLSCAASGRTFSSSFMAWFRQVLGSDREFVGGISPGGRFTYYADSRKGRFTISGDNANNTVYLQMHSVKPEDTATYYCAADTQFSGYVPKETNEYDYWGQGTQVTVSS was 194000

Note to self: kon recorded for LG192A8 (VHH) VHH: EVQLVESGGGLVQAGGSLRLSCAASERTVIAYTMGWFRRAPGKERDFVAAMNWNGGNTIYADSAKGRFTISRDNAKNTVYLQMNSLKAEDTAVYYCAARPRFWGSYEYDYWGQGTQVTVSS was 322000
